Please go through the items and note down their self-cleavage.
B1: HDV Ribozyme (parent)
chain: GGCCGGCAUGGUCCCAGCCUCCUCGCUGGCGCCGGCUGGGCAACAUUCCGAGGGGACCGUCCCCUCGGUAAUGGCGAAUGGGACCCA

Variants of: B1
Test: self-cleavage, relative activity (ratio to wild type); higher = more cleavage; co-transcriptional
Give bare numbers.

Check out these entries, answers already filled in.
[
  {
    "MUTANT CODE": "U20C G28A",
    "MEASURE NAME": "self-cleavage",
    "OBSERVED": 0.147
  },
  {
    "MUTANT CODE": "C36U A78G",
    "MEASURE NAME": "self-cleavage",
    "OBSERVED": 0.128
  },
  {
    "MUTANT CODE": "U47C C86G",
    "MEASURE NAME": "self-cleavage",
    "OBSERVED": 0.675
  },
  {
    "MUTANT CODE": "G35C G74U",
    "MEASURE NAME": "self-cleavage",
    "OBSERVED": 0.133
  },
  {
    "MUTANT CODE": "C4U G52C",
    "MEASURE NAME": "self-cleavage",
    "OBSERVED": 0.776
  }
]

Consider the following items and state reported self-cleavage for each.
1. C19U C32G
2. G17C C24G
3. C22U G68A
4. G29C G76A

Data returned:
[0.0482, 0.0898, 0.631, 0.0545]

Consider the following items and state reported self-cleavage for each.
1. C19A G25U
2. C41U A83G
3. U37A C62A
4. C62U G73A
5. C18A G38C
6. U47A A77G
7. C3A A51C

Data returned:
0.0791
0.712
0.212
0.808
0.145
0.831
0.374

Ref: the RNAGym collection of RNA variant scans (doi:10.7554/elife.80360)
